- Tested on: M. catarrhalis BC-3531
- ASSAY PROCEDURE: Antibacterial microtitration assay (Test A), MIC
- Format: cell-based
- CONDITION SET: Moraxella catarrhalis, BC3531; Gram Negative Bacteria; strain BC-3531; read-out: Minimum Inhibitory Concentrations M. catarrhalis BC-3531
OBSERVABLE: log10(MIC) (log10 of the value in µg/mL)
Units before log transform: µg/mL; reported quantity: MIC; transform: log10.

A selection of reference data follows.
{"columns": ["MOLECULE", "log10(MIC)"],
 "data": [
  ["COc1c(N2CCC(C(O)C(F)(F)F)C2)c(F)cc2c(=O)n(N)c(=O)n(C3CC3)c12 (centres unmarked) [drawing 318]", -0.90],
  ["Cc1c(N2CCC(C(O)CO)C2)c(F)cc2c(=O)n(N)c(=O)n(C3CC3)c12 (centres unmarked) [drawing 317]", 0.00],
  ["Nn1c(=O)c2cc(F)c(N3C[C@@H](CCO)[C@@H](CCO)C3)nc2n(C2CC2)c1=O [drawing 333]", -1.22],
  ["Cc1c(N2CCC(C(O)c3ncco3)C2)c(F)cc2c(=O)n(N)c(=O)n(C3CC3)c12 (centres unmarked) [drawing 313]", 0.30],
  ["COc1c(N2CCC(C(O)C3(CO)CC3)C2)c(F)cc2c(=O)n(N)c(=O)n(C3CC3)c12 (centres unmarked) [drawing 316]", 0.00]
]}

Lookup: Give me measured log10(MIC), please, for this molecule: COc1c(N2CCC(C(O)c3ncco3)C2)c(F)cc2c(=O)n(N)c(=O)n(C3CC3)c12 (centres unmarked) [drawing 312]
Found: 0.30

Lookup: Give me measured log10(MIC), please, for this molecule: Nn1c(=O)c2cc(F)c(N3C[C@H](CO)[C@H](F)C3)nc2n(C2CC2)c1=O [drawing 334]
Found: 0.00

Lookup: Give me measured log10(MIC), please, for this molecule: Nn1c(=O)c2cc(F)c(N3C[C@H](CO)[C@@H](CO)C3)nc2n(C2CC2)c1=O [drawing 331]
Found: 0.60
